Data origin, for the record: patent US9669016B2

- System: Leishmania major promastigotes
- protocol.details: Luciferase survival assay on L. major promastigotes
- Format: cell-based
- condition.set: 96 h, read-out: estimated EC50, L. major promastigotes
- Description: Evaluation of the NC library activity against Leishmania major. […] Promastigotes (10^6/well) were added, and parasite survival was assessed by luciferase activity with the substrate 5′-fluoroluciferin (ONE-Glo Luciferase Assay System, Promega) after 96-h incubation at 28° C., using a luminometer (Luminoskan, Thermo). […] This was determined by comparing bioluminescent intensity of L. major parasites live/dead with MTT assay and cell counting. […]
Give measured EC50 for each item. Keep answers brief.
# number only, unit nM dropped from output

Give EC50 for this entry on Leishmania major promastigotes: CN(C)CC1CCCC(CN(C)C)C1=O (centres unmarked)
453

Give EC50 for this entry on Leishmania major promastigotes: CN(C)CC1CCC(CN(C)C)C1=O (centres unmarked)
1120

* * *

- Test system: T. cruzi epimastigotes
- protocol.details: Viability assay (Alamar Blue) on T. cruzi epimastigotes
- Type: cell-based
- condition.set: Trypanosoma cruzi; 96 hour incubation; read-out: EC50, T. cruzi epimastigotes
endpoint.name: pEC50
Bear in mind: pEC50 is minus log10 of a mol/L concentration; give just that figure.

Give pEC50 for this entry on T. cruzi epimastigotes: O=C1/C(=C/c2ccccc2)CN(C(=O)C(=O)N2C/C(=C\c3ccccc3)C(=O)/C(=C/c3ccccc3)C2)C/C1=C\c1ccccc1 [NC2459]
7.70

Give pEC50 for this entry on T. cruzi epimastigotes: CN(C)CC1CCC(CN(C)C)C1=O (stereo not drawn) [NC884]
6.32

Give pEC50 for this entry on T. cruzi epimastigotes: CN(C)CC1CCCC(CN(C)C)C1=O (stereo not drawn) [NC901]
6.33

* * *

- Tested on: L. major intracellular amastigotes
- protocol.details: High-content imaging infectivity assay, L. major amastigote-infected macrophages
- Type: cell-based, Leishmania major
- condition.set: Leishmania major, Peritoneal macrophage, in Mus musculus; in BALB/c peritoneal macrophages, 48 h treatment
endpoint.name: pIC50
Bear in mind: pIC50 is minus log10 of a mol/L concentration; give just that figure.

Check the records and state pIC50 for CN(C)CC1CCCC(CN(C)C)C1=O (stereo not drawn) [NC901]
5.73

Check the records and state pIC50 for CN(C)CC1CCC(CN(C)C)C1=O (stereo not drawn) [NC884]
6.03

Check the records and state pIC50 for O=C1/C(=C/c2ccccc2)CN(C(=O)C(=O)N2C/C(=C\c3ccccc3)C(=O)/C(=C/c3ccccc3)C2)C/C1=C\c1ccccc1 [NC2459]
6.20

* * *

- System: Hs27 human fibroblasts
- protocol.details: Viability assay (Alamar Blue) on Hs27 fibroblasts
- Assay type: cell-based
- condition.set: read-out: Mammalian cells IC50 ± SD, Hs27 Fibroblasts
Give measured IC50 for each item. Keep answers brief.
# number only, unit µM dropped from output

Check the records and state IC50 for CN(C)CC1CCC(CN(C)C)C1=O (stereo not drawn) [NC884]
16.3

Check the records and state IC50 for O=C1/C(=C/c2ccccc2)CN(C(=O)C(=O)N2C/C(=C\c3ccccc3)C(=O)/C(=C/c3ccccc3)C2)C/C1=C\c1ccccc1 [NC2459]
10

Check the records and state IC50 for CN(C)CC1CCCC(CN(C)C)C1=O (stereo not drawn) [NC901]
16
